B1: Homeobox protein cut-like 1, residues 941 to 1008; numbered along this chain, P39880 (parent)
chain: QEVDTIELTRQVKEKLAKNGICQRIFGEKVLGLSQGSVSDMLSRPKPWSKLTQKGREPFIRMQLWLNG

Variants of: B1
test description: abundance fitness (aPCA) (normalised: wild type 0, dead -1); higher = more abundant; growth selection in yeast, the domain comes from the species named
protocol conditions: Homo sapiens
Cut-off -0.1 on abundance fitness, inclusive. At or above means 1; below means 0.

// known answers, use as guide
S43M :: 1
L8E :: 1
R44I :: 0

Entry S34A : is its abundance fitness no less than -0.1? 1

Entry Q23A : is its abundance fitness no less than -0.1? 0

Entry S37V : is its abundance fitness no less than -0.1? 1

Entry V3T : is its abundance fitness no less than -0.1? 0

Entry P45M : is its abundance fitness no less than -0.1? 0

This collection of values is drawn from the Human Domainome abundance scans (Beltran et al. 2025).
